relative viability reference
Tested on: NCI-H661
Assay: relative viability (nuclei count vs DMSO), 5 days (fraction); higher = more cells survive
Settings: first compound 0.1265 µM
Form: value (number only, do not type unit).

Worked examples, 3 compounds total:
INSERT INTO results (compound, recorded_result) VALUES
  ('O=C(O)c1ccc(-c2c[nH]c3ncc(-c4ccccc4)cc23)cc1C1CCCC1 + O=C(CCCCCCC(=O)Nc1ccccc1)NO [Vorinostat] (partner 1 µM)', 0.763),
  ('O=C(O)c1ccc(-c2c[nH]c3ncc(-c4ccccc4)cc23)cc1C1CCCC1 + CC(=O)c1c(C)c2cnc(Nc3ccc(N4CCNCC4)cn3)nc2n(C2CCCC2)c1=O [Palbociclib] (partner 0.5 µM)', 0.411),
  ('O=C(O)c1ccc(-c2c[nH]c3ncc(-c4ccccc4)cc23)cc1C1CCCC1 + C[C@]1(O)C[C@@H](c2nc(-c3ccc4ccc(-c5ccccc5)nc4c3)c3c(N)nccn32)C1 [Linsitinib] (partner 1 µM)', 0.603);

As a next step, examine the compound that follows.
compound O=C(O)c1ccc(-c2c[nH]c3ncc(-c4ccccc4)cc23)cc1C1CCCC1 + CS(=O)(=O)CCNCc1ccc(-c2ccc3ncnc(Nc4ccc(OCc5cccc(F)c5)c(Cl)c4)c3c2)o1 [Lapatinib] (partner 2 µM) , relative viability observed: 0.633
